# Tested system: RSV protein F of strain B Wash/18537 (RSV B Wash/18537 (ATCC number VR-1580)) (UniProt P13843)
# Sequence (P13843 26-574): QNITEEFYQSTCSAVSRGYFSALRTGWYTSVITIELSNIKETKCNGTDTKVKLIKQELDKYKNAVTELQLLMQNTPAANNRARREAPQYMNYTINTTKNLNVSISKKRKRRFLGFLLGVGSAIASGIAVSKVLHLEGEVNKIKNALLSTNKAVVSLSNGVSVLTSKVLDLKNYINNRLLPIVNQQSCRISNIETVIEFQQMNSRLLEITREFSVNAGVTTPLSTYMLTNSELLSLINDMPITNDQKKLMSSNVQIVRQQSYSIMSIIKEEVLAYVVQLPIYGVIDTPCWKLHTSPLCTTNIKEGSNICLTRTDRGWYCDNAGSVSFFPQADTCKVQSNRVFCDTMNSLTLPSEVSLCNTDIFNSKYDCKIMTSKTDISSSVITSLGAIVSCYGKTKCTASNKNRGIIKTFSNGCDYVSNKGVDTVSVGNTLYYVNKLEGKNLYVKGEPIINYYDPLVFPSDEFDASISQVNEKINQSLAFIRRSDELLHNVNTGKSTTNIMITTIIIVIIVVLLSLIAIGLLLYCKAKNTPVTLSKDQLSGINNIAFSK
# Protocol summary: cell-based or functional assay
Quick reference: PRNT EC50 with complement, RSV 18537 of the listed items.
Quantity kind: PRNT EC50 with complement, RSV 18537 (µg/mL)

antibody clone 880 (antibody, human IgG1, kappa, V domains shown) VH: QITLKESGPTLVRPTQTLTLTCTFSGFSLSTSKLGVGWIRQPPGKALEWLALVDWDDDRRYRPSLKSRLTVTKDTSKNQVVLTMTNMDPVDTATYYCAHSAYYTSSGYYLQYFHHWGPGTLVTVSS VL: DIQMTQSPSSLAASVGDRVTITCRASQTIASYVNWYQQKPGKAPNLLIYAASSLQSGVPSRFSGSGSGTDFTLTISSLQPEDFASYFCQQSYSFPYTFGQGTKLDIKR = 0.95
antibody clone 831 (antibody, human IgG1, kappa, V domains shown) VH: QVQLVQSGAEVKKPGASVKVSCKASANIFTYAMHWVRQAPGQRLEWMGWINVGNGQTKYSQRFQGRVTITRDTSATTAYMELSTLRSEDTAVYYCARRASQYGEVYGNYFDYWGQGTLVTVSS VL: DIQMTQSPSTLSASVGDRLTITCRASQNIYNWLAWYQQKPGKAPKLLIYDASTLESGVPSRFSGSGSGTEFTLTISSLQPDDFATYYCQQYNSLSPTFGQGTKVEIKR = 0.72
antibody clone 818 (antibody, human IgG1, kappa, V domains shown) VH: QVTLRESGPAVVKPTETLTLTCAFSGFSLNAGRVGVSWIRQPPGQAPEWLARIDWDDDKAFRTSLKTRLSISKDSSKNQVVLTLSNMDPADTATYYCARTQVFASGGYYLYYLDHWGQGTLVTVSS VL: DIQMTQSPSSLSASVGDRVTITCRASQTIASYVNWYQQKPGRAPSLLIYAASNLQSGVPPRFSGSGSGTDFTLTISGLQPDDFATYYCQQSYSYRALTFGGGTKVEIKR = 0.21
antibody clone 894 (antibody, human IgG1, kappa, V domains shown) VH: QVQLVESGGGVVQPGKSLRLSCAASGFRFSDYGMHWVRQAPSKGLEWVAVIWHDGSNIRYADSVRGRFSISRDNSKNTLYLQMNSMRADDTAFYYCARVPFQIWSGLYFDHWGQGTLVTVSS VL: EIVMTQSPATLSVSPGERATLSCRASQSVGNNLAWYQQRPGQAPRLLIYGASTRATGIPARFSGSGSGTEFTLTISSLQSEDFAVYYCQQYDKWPETFGQGTKVDIKR = 0.07
